# ASSAY SYSTEM: tau fibrils (Homo sapiens)
# Sequence (P10636 560-692): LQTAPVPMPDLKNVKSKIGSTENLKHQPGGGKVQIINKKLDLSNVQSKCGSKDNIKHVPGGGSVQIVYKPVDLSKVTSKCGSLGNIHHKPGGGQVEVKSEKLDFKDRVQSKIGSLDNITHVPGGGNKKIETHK
# PROCEDURE DETAILS: Radioligand binding assay with tau fibrils (Table 8)
pKd: −log10 of the molar value.
ENDPOINT LABEL: pKd

[[record]]
molecule = "COc1cc(/C=C/c2ccc3cc(OCCF)ccc3n2)ccn1 [[^18F]TZ-36-148]"
assay_system = "tau fibrils (Homo sapiens)"
meas_value = 7.29


====

# PROCEDURE DETAILS: Biodistribution in male Balb/C mice
# Type: in vivo
# EXPERIMENTAL PARAMETERS: 30 min post injection, tail vein; mean ± SD, n = 4
ENDPOINT LABEL: Biodistribution: Pancreas (% ID/g)

[[record]]
compound = "O=C(Nc1ccc(OCC[18F])cc1)c1ccc(/C=C/c2ccncc2)cc1 [[^18F]TZ-23-88]"
meas_value = 3.02

[[record]]
compound = "COc1ccc(NC(=O)c2ccc(/C=C/c3ccncc3)cc2)cc1 [[^11C]TZ-20-83]"
meas_value = 5.10

[[record]]
compound = "O=C(Nc1ccc(OCCC[18F])cc1)c1ccc(/C=C/c2ccncc2)cc1 [[^18F]TZ-23-92]"
meas_value = 1.87

[[record]]
compound = "COC(=O)c1ccc(/C=C/c2ccncc2)cc1 [[^11C]TZ-20-35]"
meas_value = 3.54


====

# PROCEDURE DETAILS: Biodistribution in male Balb/C mice
# Type: in vivo
# EXPERIMENTAL PARAMETERS: 60 min post injection, tail vein; mean ± SD, n = 4
ENDPOINT LABEL: Biodistribution: Lung (% ID/g)

[[record]]
molecule = "COC(=O)c1ccc(/C=C/c2ccncc2)cc1 [[^11C]TZ-20-35]"
units_symbol = "% ID/g"
meas_value = 2.21

[[record]]
molecule = "COc1ccc(NC(=O)c2ccc(/C=C/c3ccncc3)cc2)cc1 [[^11C]TZ-20-83]"
units_symbol = "% ID/g"
meas_value = 2.93

[[record]]
molecule = "O=C(Nc1ccc(OCCC[18F])cc1)c1ccc(/C=C/c2ccncc2)cc1 [[^18F]TZ-23-92]"
units_symbol = "% ID/g"
meas_value = 0.83

[[record]]
molecule = "O=C(Nc1ccc(OCC[18F])cc1)c1ccc(/C=C/c2ccncc2)cc1 [[^18F]TZ-23-88]"
units_symbol = "% ID/g"
meas_value = 1.31


====

# PROCEDURE DETAILS: Biodistribution in male Balb/C mice
# Assay type: in vivo
# EXPERIMENTAL PARAMETERS: 60 min post injection, tail vein; mean ± SD, n = 4
# Protocol: For the biodistribution studies, 100˜130 μCi of [^11C] […] All the tissue samples were collected in tared tubes and counted in an automated gamma counter (Beckman Gamma 8000 well counter) with standards, prepared by diluting the injectate. The counted tissues were then weighed, and the % ID/g was calculated (Table 4).
Biodistribution: Heart values by entry
ENDPOINT LABEL: Biodistribution: Heart (% ID/g)

[[record]]
compound = "O=C(Nc1ccc(OCCC[18F])cc1)c1ccc(/C=C/c2ccncc2)cc1 [[^18F]TZ-23-92]"
endpoint_label = "Biodistribution: Heart"
meas_value = 0.90

[[record]]
compound = "COC(=O)c1ccc(/C=C/c2ccncc2)cc1 [[^11C]TZ-20-35]"
endpoint_label = "Biodistribution: Heart"
meas_value = 1.80

[[record]]
compound = "O=C(Nc1ccc(OCC[18F])cc1)c1ccc(/C=C/c2ccncc2)cc1 [[^18F]TZ-23-88]"
endpoint_label = "Biodistribution: Heart"
meas_value = 1.23

[[record]]
compound = "COc1ccc(NC(=O)c2ccc(/C=C/c3ccncc3)cc2)cc1 [[^11C]TZ-20-83]"
endpoint_label = "Biodistribution: Heart"
meas_value = 1.48


====

# ASSAY SYSTEM: α-synuclein fibrils (Homo sapiens, UniProt P37840)
# Construct: made in house; host or cells: E. coli BL21(DE3)RIL
# PROCEDURE DETAILS: Thioflavin T competition assay (Example 130, Table 9), α-synuclein fibrils
# Format: binding
# EXPERIMENTAL PARAMETERS: average; read-out: α-synuclein Ki (avg)
pKi: −log10 of the molar value.
pKi values by entry
ENDPOINT LABEL: pKi

[[record]]
compound = "COc1ccc2nc(/C=C/c3ccnc(Br)c3)ccc2c1"
assay_system = "α-synuclein fibrils (Homo sapiens, UniProt P37840)"
meas_value = 6.82

[[record]]
compound = "COc1ccc2nc(/C=C/c3ccoc3)ccc2c1"
assay_system = "α-synuclein fibrils (Homo sapiens, UniProt P37840)"
meas_value = 7.16

[[record]]
compound = "COCOc1ccc2nc(/C=C/c3ccnc(OC)c3)ccc2c1"
assay_system = "α-synuclein fibrils (Homo sapiens, UniProt P37840)"
meas_value = 7.38

[[record]]
compound = "COc1cc(/C=C/c2ccc3cc(OCCF)ccc3n2)ccn1 [[^18F]TZ-36-148]"
assay_system = "α-synuclein fibrils (Homo sapiens, UniProt P37840)"
meas_value = 7.74

[[record]]
compound = "COc1ccc2nc(C#Cc3ccnc(OC)c3)ccc2c1"
assay_system = "α-synuclein fibrils (Homo sapiens, UniProt P37840)"
meas_value = 6.63

[[record]]
compound = "COc1cc(/C=C/c2ccc3cc(OC(C)C)ccc3n2)ccn1"
assay_system = "α-synuclein fibrils (Homo sapiens, UniProt P37840)"
meas_value = 7.31

[[record]]
compound = "COc1cc(/C=C/c2ccc3cc(O)ccc3n2)ccn1"
assay_system = "α-synuclein fibrils (Homo sapiens, UniProt P37840)"
meas_value = 6.90


====

Biodistribution: Pancreas values by entry
# PROCEDURE DETAILS: Biodistribution in male Balb/C mice
# Assay type: in vivo
# EXPERIMENTAL PARAMETERS: 5 min post injection, tail vein; mean ± SD, n = 4
ENDPOINT LABEL: Biodistribution: Pancreas (% ID/g)

[[record]]
compound = "O=C(Nc1ccc(OCC[18F])cc1)c1ccc(/C=C/c2ccncc2)cc1 [[^18F]TZ-23-88]"
meas_value = 4.91

[[record]]
compound = "COc1ccc(NC(=O)c2ccc(/C=C/c3ccncc3)cc2)cc1 [[^11C]TZ-20-83]"
meas_value = 3.09

[[record]]
compound = "O=C(Nc1ccc(OCCC[18F])cc1)c1ccc(/C=C/c2ccncc2)cc1 [[^18F]TZ-23-92]"
meas_value = 2.03

[[record]]
compound = "COC(=O)c1ccc(/C=C/c2ccncc2)cc1 [[^11C]TZ-20-35]"
meas_value = 3.64


====

# ASSAY SYSTEM: α-synuclein fibrils (Homo sapiens, UniProt P37840)
# Construct: made in house; host or cells: E. coli BL21(DE3)RIL
# PROCEDURE DETAILS: ThT competitive assay for α-synuclein fibrils (Table 1)
# Type: binding
# EXPERIMENTAL PARAMETERS: average; read-out: Ki (nM) α-syn (avg)
Ki values by entry
ENDPOINT LABEL: Ki (nM)

[[record]]
smiles = "Fc1ccc2nc(/C=C/c3cnccn3)ccc2c1"
endpoint_label = "Ki"
units_symbol = "nM"
meas_value = 109

[[record]]
smiles = "O=C(NCCF)c1ccc(/C=C/c2ccncc2)cc1"
endpoint_label = "Ki"
units_symbol = "nM"
meas_value = 115

[[record]]
smiles = "COc1ccc(/C=C/c2ncccn2)cc1"
endpoint_label = "Ki"
units_symbol = "nM"
meas_value = 2770

[[record]]
smiles = "CC(C)OC(=O)c1ccc(/C=C/c2ccncc2)cc1"
endpoint_label = "Ki"
units_symbol = "nM"
meas_value = 75.6

[[record]]
smiles = "COc1ccc(/C=C/c2ccc(-c3cnc(C)s3)s2)cc1"
endpoint_label = "Ki"
units_symbol = "nM"
meas_value = 134

[[record]]
smiles = "Brc1ccc(/C=C/c2cccs2)cc1"
endpoint_label = "Ki"
units_symbol = "nM"
meas_value = 198


====

# ASSAY SYSTEM: Aβ1-42 fibrils (Homo sapiens, UniProt P05067)
# Construct: Synthetic Aβ42 peptide (1 mg) (Bachem, Torrance, Calif.)
# Sequence (P05067 672-713 limits assumed): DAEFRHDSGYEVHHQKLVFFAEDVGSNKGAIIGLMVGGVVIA
# PROCEDURE DETAILS: Radioligand binding assay with Aβ1-42 fibrils (Table 8)
ENDPOINT LABEL: Kd (nM)

[[record]]
compound = "COc1cc(/C=C/c2ccc3cc(OCCF)ccc3n2)ccn1 [[^18F]TZ-36-148]"
units_symbol = "nM"
meas_value = 98


====

# PROCEDURE DETAILS: Biodistribution in male Balb/C mice
# Type: in vivo
# EXPERIMENTAL PARAMETERS: 30 min post injection, tail vein; mean ± SD, n = 4
ENDPOINT LABEL: Biodistribution: Kidney (% ID/g)

[[record]]
molecule = "O=C(Nc1ccc(OCCC[18F])cc1)c1ccc(/C=C/c2ccncc2)cc1 [[^18F]TZ-23-92]"
meas_value = 9.10

[[record]]
molecule = "COc1ccc(NC(=O)c2ccc(/C=C/c3ccncc3)cc2)cc1 [[^11C]TZ-20-83]"
meas_value = 9.98

[[record]]
molecule = "COC(=O)c1ccc(/C=C/c2ccncc2)cc1 [[^11C]TZ-20-35]"
meas_value = 4.43

[[record]]
molecule = "O=C(Nc1ccc(OCC[18F])cc1)c1ccc(/C=C/c2ccncc2)cc1 [[^18F]TZ-23-88]"
meas_value = 15.72


The reported measurements were obtained from patent US10300155B2.
